IC50 reference
# assay_explanation: Cytotoxicity against MRC-5 cells
# test_parameters: human, MRC-5 cells
Use µM as the unit, but write only the number.

> print(dat)
                                   compound  property.measured  units.symbol  recorded.measurement
1  CC[C@H](C)[C@@H]1NC(=O)[C@@H](NC(=O)[C@H](CC(C)C)N(C)C)[C@H](C(C)C)Oc2ccc(cc2)/C=C\NC1=O               IC50            µM                  19.1

# evaluate next
Ask: Query: IC50; subject: CCC(C)[C@@H](C(=O)N[C@@H]1C(=O)N[C@@H](CC(C)C)C(=O)N/C=C\c2ccc(cc2)O[C@H]1C(C)C)N(C)C (stereo partly shown)
Result: 30.6
